- EXPERIMENT_NOTES: Healthy Japanese subjects, Part 2 (100, 200, 300 mg BID up-titration): PK of TAK-935 and M-I
- Format: in vivo, human
- COND: human, plasma, oral, 100 mg, TAK-935; Day 7, 100 mg BID; read-out: mean Cmax
READOUT_LABEL: Cmax (ng/mL)

[[record]]
structure_string = "O=C(c1cccnc1-c1ccncc1)N1CCC(O)(Cc2ccccc2)CC1"
result_number = 204


----------
- EXPERIMENT_NOTES: clinical
- COND: human, in vivo, 300 mg, Cmax steady state, mean
READOUT_LABEL: Cmax (ng/mL)

[[record]]
compound = "O=C(c1cccnc1-c1ccncc1)N1CCC(O)(Cc2ccccc2)CC1 [soticlestat]"
result_number = 975


These data points were gathered from patent US20250213547A1.
